Hi there, I'd appreciate the recorded composite z-score for every entry that follows.
test system: Neuregulin-1 EGF-like domain; assay: binders of neuregulin-1 EGF-like domain, primary screen, biochemical, small-molecule microarray, 635 nm fluorescence (AID 1081); conditions: small-molecule microarray binding, higher = more signal;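 also: binding of the protein to compounds printed on small-molecule microarray slides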
// response body must contain only the number

# composite z-score of C=CCC(OC(C)=O)[C@@H]1[C@@H](N(Cc2ccc(-c3ccccc3)cc2)C(=O)c2ccc(-c3ccccc3)cc2)c2cc(OCCCO)ccc2N1C(=O)Cc1ccc(OC)cc1 (some centres undefined) = -0.261

# composite z-score of C=CCN1C(=O)[C@@]2(Cc3ccccc3)N=C(c3ccc(OCCCO)cc3)O[C@H]2c2ccccc21 = 1.14

# composite z-score of CCN1C(C)=C(C(=O)OC)[C@@H](c2ccccc2)N2C(=O)[C@@]3(C(=O)OC)O[C@@]12[C@@H]1C(=O)N(c2ccccc2)C(=O)[C@@H]13 = 0.892

# composite z-score of Cc1ccc(S(=O)(=O)N2[C@@H](c3ccccc3)C(C(=O)O)=CC[C@H]2c2ccccc2)cc1 = 1.38

# composite z-score of COc1ccc(CCNC(=O)[C@@]2(c3ccc([N+](=O)[O-])cc3)CC(=O)N(C(C)C)[C@@H]2c2ccc(CO)cc2)cc1 = 0.987

# composite z-score of C=CCC(OC(C)=O)[C@@H]1[C@@H](N(Cc2cccc3ccccc23)C(=O)Cc2ccc(F)cc2)c2cc(OCCCO)ccc2N1C(=O)Cc1ccc2ccccc2c1 (some centres undefined) = -0.607

# composite z-score of CN(C)CCCC[C@@H]1NC(=O)[C@@H]2C[C@H](C(=O)NCCCCCNC(=O)CS)[C@H](c3ccc(O)cc3)N2C1=O = 1.22

# composite z-score of N#Cc1ccc(NN2C(C(O)c3ccc(I)cc3)C=CC3C(=O)N(c4ccccc4)C(=O)C32)cc1 (centres undefined) = 1.28

# composite z-score of COCCOC(=O)N1C(=O)[C@@]2(c3cc(C#CCCO)ccc31)[C@H](c1ccc(O)cc1)N1[C@H](c3ccccc3)[C@H](c3ccccc3)OC(=O)[C@H]1[C@@H]2C(=O)Nc1nc2ccccc2s1 = 1.15

# composite z-score of O=C/C=C/c1ccc(/C=C/c2ccccc2)cc1 = -0.34

# composite z-score of NC(=O)[C@H]1[C@@H]2C(=O)O[C@@H](c3ccccc3)[C@@H](c3ccccc3)N2[C@@H](c2ccc(O)cc2)[C@]12C(=O)Nc1ccc(C#CCCO)cc12 = 1.12

# composite z-score of CC(C)[C@H]1NC(=O)[C@@]23C(=O)N[C@@H](Cc4ccccc4)C2[C@H](C)[C@@]2(C)O[C@H]2C3/C=C/C/C=C\CNC(=O)[C@H](C)NC1=O (some centres undefined) = 0.754

# composite z-score of CC(=O)NCCCC[C@@H]1NC(=O)[C@H]2C[C@@H](C(=O)NCCCCCCN(C)C)[C@@H](c3cccc(OCCO)c3)N2C1=O = 1.35

# composite z-score of CC(C)[Si]1(C(C)C)OCc2cc(C3CC3)nc(-c3ccccc3)c21 = -0.531

====

biological target: Luciferin 4-monooxygenase (Photinus pyralis); assay: firefly luciferase enzyme inhibitors, primary screen, biochemical, luminescence, purified enzyme, 2006 set (AID 1141); conditions: SteadyGlo luminescence, 30 min, higher = more signal, called active from +8 up or from −8 down;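 also: cell-free assay with purified firefly luciferase at 100 ng per well in PBS; test concentration not given here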
# z-score >= 0.5 gives 1, anything below gives 0

Asked: Form field: z-score at least 0.5? Entry: COc1ccc([Si](C)(C)[C@H]2[C@H](CCO)O[C@@]3(C(=O)N(Cc4ccc(N5CCCCC5=O)cc4)c4ccccc43)[C@@H]2C)cc1
Given back: 0

Asked: Form field: z-score at least 0.5? Entry: CO[C@@H]1COC(=O)[C@H](C)NC(=O)CC=C[C@@H](C)[C@H](NS(=O)(=O)c2ccc(C)cc2)COC(=O)CC=C[C@@H]1C
Given back: 0

Asked: Form field: z-score at least 0.5? Entry: CCOC(=O)C[C@H]1[C@H](OC(=O)c2ccccc2-c2ccccc2)[C@@H](NC(=O)C2CCCCC2)c2cc(OCCCO)ccc2N1C(=O)c1ccccc1
Given back: 0

Asked: Form field: z-score at least 0.5? Entry: COc1ccc([C@H]2C[C@H]3C(Br)=C[C@]2(OC)C(=O)[C@]32CO2)cc1
Given back: 1

Asked: Form field: z-score at least 0.5? Entry: COC(=O)Cn1c(C(=O)N2CCCC2)cc2c1C[C@H]1CN(C(=O)c3ccccc3)[C@@](Cc3ccc(OC)cc3)(C(=O)OC)[C@@H]21
Given back: 1

Asked: Form field: z-score at least 0.5? Entry: O=C1O[C@@H](c2ccccc2)[C@@H](c2ccccc2)N2[C@@H](c3ccc(OCCO)cc3)[C@]3(C(=O)Nc4ccc(C#CCCO)cc43)[C@@H](C(=O)N3CCN(c4ncccn4)CC3)[C@H]12
Given back: 0

Asked: Form field: z-score at least 0.5? Entry: COc1cc(Cc2cc3c(c(CCc4ccccc4)n2)[Si](C(C)C)(C(C)C)OC3)cc(OC)c1OC
Given back: 1

====

Hi there, I'd appreciate the recorded composite z-score for every entry that follows.
test system: Fibrinogen (Alexa647-labelled); assay: fibrinogen binders on compound microarrays, profiling panel, artefact control for SMM control-protein annotation, biochemical, small-molecule microarray, 635/667 nm fluorescence (AID 1131); conditions: fibrinogen-A647 binding fluorescence, higher = more signal;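 also: z-score merges 667 nm fluorescence with per-spot signal-to-noise over triplicate slides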

# composite z-score of C=CCNC(=O)[C@H]1[C@@H]2C(=O)O[C@@H](c3ccccc3)[C@@H](c3ccccc3)N2[C@@H](c2ccc(O)cc2)[C@]12C(=O)Nc1ccc(C#CCNC(N)=O)cc12 = -1.04

# composite z-score of O=C(N1CCCCC1)[C@@]1(CCS(=O)(=O)c2ccccc2)N=C(c2ccc(OCCCO)cc2)O[C@H]1c1ccccc1 = 0.328

# composite z-score of CC(C)N1CC=CC23O[C@@H]4/C=C\CCCOC(=O)C4[C@H]2C(=O)N(CCO)[C@@H]3C1=O (stereo partly drawn) = -0.508

# composite z-score of C=C(CCCC)/C(=C/C[C@@H](OC(=O)c1ccncc1)c1ccc(CO)o1)c1cnc2ccccc2c1 = 0.878

# composite z-score of C=CCC(OC(C)=O)[C@@H]1[C@@H](N(Cc2ccc(-c3cccc(C(F)(F)F)c3)o2)C(=O)Cc2ccc(F)cc2)c2cc(OCCCO)ccc2N1C(=O)c1ccc(-c2ccccc2)cc1 (stereo partly drawn) = -0.531

# composite z-score of CC1CC/C=C\[C@H]2OC34C=CCN(Cn5nnc6ccccc65)C(=O)[C@H]3N(C(C)CO)C(=O)[C@@H]4C2C(=O)O1 (stereo partly drawn) = -0.559

# composite z-score of CO[C@H]1O[C@H](CO)[C@@H](OC(=O)Nc2ccc(Oc3ccccc3)cc2)[C@H](OC(=O)Nc2ccccc2-c2ccccc2)[C@H]1OC(=O)Nc1ccccc1-c1ccccc1 = 0.98

# composite z-score of CO[C@]12C=C(Br)[C@@H](C[C@@H]1c1ccccc1)[C@@]1(CO1)C2=O = -0.0226

# composite z-score of CC(C)[Si]1(C(C)C)O[C@@H](c2ccccc2)c2cc(C3CC3)nc(-c3ccc(Oc4ccccc4)cc3)c21 = -0.812

# composite z-score of CO[C@H]1COC(=O)CC=C[C@@H](C)COC(=O)[C@@H](C)NC(=O)CC=C[C@@H]1C = -0.943

# composite z-score of C=CCOC(=O)[C@@H]1[C@H]2C(=O)O[C@H](c3ccccc3)[C@H](c3ccccc3)N2[C@H](c2ccc(OCCOC(=O)[C@H]3C[C@H]4C(=O)N[C@@H](CCCCNC(C)=O)C(=O)N4[C@H]3c3ccc(O)cc3)cc2)[C@@]12C(=O)Nc1ccc(I)cc12 = 0.852

# composite z-score of CO[C@H]1O[C@H](CO)[C@@H](OC(=O)CCc2ccccc2)[C@@H]2OC(=O)[C@H](Cc3cccc(Br)c3)C/C=C/C[C@@H](Cc3cccc(Br)c3)C(=O)O[C@@H]12 = 0.0162

# composite z-score of C=C(COC)/C(=C/C[C@@H](OC(C)=O)c1cccc(OCCO)c1)c1cc(C(=O)OC)ccc1OC = -1.09

====

biological target: Focal adhesion kinase 1 (Homo sapiens); assay: small-molecule microarray binders of FAK, primary screen, biochemical, 635/667 nm fluorescence, BSA, DTT (AID 1130); conditions: PTK2 binding, 635 nm fluorescence, higher = more signal;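 also: composite of spot emission at 667 nm and signal to noise over triplicate slides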
Hi there, I'd appreciate the recorded composite z-score for every entry that follows.
// response body must contain only the number

# composite z-score of C=C(C(=O)CC[C@H](OC(=O)c1ccccc1-c1ccccc1C(=O)O)c1ccc(CO)o1)C(C)C = 0.0321

# composite z-score of O=C(NCC(F)(F)F)[C@@H]1c2ccccc2C(=O)N(Cc2ccccc2Cl)[C@H]1c1ccc(CO)cc1 = -0.844

# composite z-score of C=C(COC)/C(=C/C[C@@H](OC(=O)c1ccncc1)c1ccc(OCCO)cc1)c1cc(C(=O)OC)ccc1OC = 1.21

# composite z-score of C#CCNC(/C=C/c1ccccc1)CO (stereo not drawn) = -0.0492

# composite z-score of CCOC(=O)C[C@H]1[C@H](OC(=O)c2ccccc2-c2ccccc2)[C@@H](NC(=O)C2CCCCC2)c2cc(OCCCO)ccc2N1C(=O)c1ccccc1 = -0.268

# composite z-score of COC(=O)[C@H]1[C@@H]2COc3ccccc3[C@H]2N[C@H]1C(=O)OC = 0.404

# composite z-score of COCCOC(=O)N1C(=O)[C@@]2(c3cc(C#CCCO)ccc31)[C@H](c1ccc(O)cc1)N1[C@H](c3ccccc3)[C@H](c3ccccc3)OC(=O)[C@H]1[C@@H]2C(=O)Nc1nc2ccccc2s1 = 0.214

# composite z-score of CCc1cccc(NC(=O)O[C@H]2[C@H](OC(=O)Nc3ccccc3)[C@@H](OC(=O)Nc3ccccc3)[C@@H](OC)O[C@@H]2CO)c1 = 0.497

# composite z-score of C=CC[C@]1(C(=O)NCC(O)CO)N=C(c2ccc(OCCCO)cc2)O[C@H]1c1ccccc1 (stereo partly drawn) = 0.12

# composite z-score of C=C(CCCC)/C(=C/C[C@H](OC(=O)c1ccncc1)c1cccc(OCCO)c1)c1cc(C(=O)OC)ccc1OC = -0.0622

# composite z-score of O=C1c2ccccc2[C@](Cc2ccccc2I)(C(=O)NCc2ccccc2)[C@H](c2ccc(CO)cc2)N1Cc1ccccc1C(F)(F)F = -0.328

# composite z-score of CCCC=C(CCC)[C@@H](NC(=O)c1ccc(C(F)(F)F)cc1)c1ccccc1 = 0.0363

# composite z-score of C[N+](C)(C)CCCCNC(=O)[C@@H]1C[C@@H]2C(=O)N3CCC[C@H]3C(=O)N2[C@@H]1c1cccc(OCCO)c1 = 0.275

# composite z-score of C[C@@H]1NC(=O)CC=C[C@@H](C)[C@@H]2C=C[C@H](O)[C@@H](COC(=O)[C@H](C)NC(=O)CC=C[C@@H](C)[C@@H]3C=C[C@H](O)[C@@H](COC1=O)O3)O2 = 0.365

# composite z-score of CCN1C(C)=C(C(=O)OC)[C@@H](c2ccccc2)N2C(=O)[C@@]3(C(=O)OC)O[C@@]12[C@@H]1C(=O)CCC[C@@H]13 = -0.315

# composite z-score of CCN1C(C)=C(C(=O)OC)[C@@H](c2ccccc2)N2C(=O)[C@](O)(C(=O)OC)[C@@H](c3ccccc3)C(C(=O)c3ccccc3)=C12 = 0.0079

# composite z-score of C=CC[C@]1(C(=O)O)N=C(c2ccc(OCCCO)cc2)O[C@H]1c1ccccc1 = -0.231

# composite z-score of Cc1ccc(S[C@]2(C(=O)O)CC(=O)N(Cc3cc(C(F)(F)F)cc(C(F)(F)F)c3)[C@@H]2c2ccc(CO)cc2I)cc1 = 0.0035

# composite z-score of CC(C)[C@H]1NC(=O)[C@@]23C(=O)N[C@@H](Cc4ccccc4)C2[C@H](C)[C@@]2(C)O[C@H]2C3/C=C/C/C=C\CNC(=O)[C@H](C)NC1=O (stereo partly drawn) = -0.67

# composite z-score of CCCNC(=O)[C@@H]1c2ccccc2C(=O)N(Cc2cc(F)cc(C(F)(F)F)c2)[C@H]1c1ccc(CO)cc1 = 0.674

# composite z-score of COCCOC(=O)N1C(=O)[C@@]2(c3ccccc31)[C@H](C(=O)N1CCc3cc(OC)c(OC)cc3C1)[C@H]1C(=O)O[C@H](c3ccccc3)[C@H](c3ccccc3)N1[C@@H]2c1ccccc1OCCO = 0.989

# composite z-score of O=C1O[C@H](c2ccccc2)[C@H](c2ccccc2)N2[C@H]1[C@@H](C(=O)Nc1nc3ccccc3s1)[C@]1(C(=O)Nc3ccc(C#CC4=CCCCC4)cc31)[C@H]2c1ccccc1OCCO = 0.66

# composite z-score of COCCCNC(=O)[C@@]1(Sc2ccc(C)cc2)CC(=O)N(Cc2cc(C(F)(F)F)cc(C(F)(F)F)c2)[C@@H]1c1ccc(CO)cc1I = 0.144

# composite z-score of CO[C@H]1O[C@H](CO)[C@@H](OC(=O)Nc2ccc(Oc3ccccc3)cc2)[C@H](OC(=O)Nc2ccccc2-c2ccccc2)[C@H]1OC(=O)Nc1ccccc1-c1ccccc1 = 1.62

# composite z-score of COCCOC(=O)N1C(=O)[C@@]2(c3cc(C#CC4(O)CCCCCC4)ccc31)[C@H](C(=O)N1CCCCCCC1)[C@H]1C(=O)O[C@H](c3ccccc3)[C@H](c3ccccc3)N1[C@@H]2c1ccc(O)cc1 = 0.646

# composite z-score of CC1CC/C=C\[C@H]2OC34C=CCN(Cn5nnc6ccccc65)C(=O)[C@H]3N(C(C)CO)C(=O)[C@@H]4C2C(=O)O1 (stereo partly drawn) = -0.305

# composite z-score of CO[C@@H]1COC(=O)CC=C[C@@H](C)[C@H](OC)COC(=O)CC=C[C@H]1C = -0.436

# composite z-score of C[C@]1(C(=O)NCc2ccccc2)c2ccccc2C(=O)N(Cc2cc(C(F)(F)F)cc(C(F)(F)F)c2)[C@H]1c1ccc(CO)cc1 = 0.415
